tested on: Vibrio harveyi; assay: Growth inhibition of Vibrio harveyi MM32 by spectrophotometry; assay type: organism-based; conditions: in vivo
readout_label: growth inhibition (GI)

>  <record_smiles>
C=CCOC(=O)C1=CS(=O)(=O)c2ccccc21

>  <readout_label>
growth inhibition (GI)

>  <observed_value>
Toxic

$$$$
>  <record_smiles>
CSC1=CS(=O)(=O)c2ccccc21

>  <readout_label>
growth inhibition (GI)

>  <observed_value>
Toxic

$$$$
>  <record_smiles>
O=C(O)c1ccc(-c2c(Cl)cc([N+](=O)[O-])cc2Cl)o1

>  <readout_label>
growth inhibition (GI)

>  <observed_value>
Non-toxic

$$$$
>  <record_smiles>
Cc1cc(=O)n2nc(N)c(/N=N/c3ccccc3)c2[nH]1

>  <readout_label>
growth inhibition (GI)

>  <observed_value>
Toxic

$$$$
>  <record_smiles>
CSc1nccc(Oc2ccccc2Cl)n1

>  <readout_label>
growth inhibition (GI)

>  <observed_value>
Non-toxic

$$$$
>  <record_smiles>
Fc1ccccc1-c1ccc(CNCc2ccco2)o1

>  <readout_label>
growth inhibition (GI)

>  <observed_value>
Toxic

$$$$

Input: Please look up its growth inhibition (GI): `Cn1cnnc1SCC(=O)Nc1nc2ccccc2s1`
Output: Non-toxic
